# Tested on: HSV-1
# Assay procedure: Plaque reduction assay, HSV-1 clinical isolates on Vero cells
# Assay type: cell-based
# Condition label: Human alphaherpesvirus 1, Vero, isolate HPG042, HSV-1 pol G22R (64G>A); also TK deletion (C) nt 881-885, pol A1169T; read-out: Drug susceptibility Foscarnet (FOS)
# Description: Viral isolates were used to infect a sub-confluent monolayer of Vero cells at a concentration of 75 or 50 plaque forming units (PFU) per well for HSV-1 and HSV-2, respectively. […] CMC medium typically used to create a semisolid interface and prevents indiscrimate viral spreading. Other materials (e.g. agar) may also be used to create this interface. […]
Reported metric: IC50

Form: molecule = `O=C(O)P(=O)(O)O` ; IC50 = < 250 µM

----------
# Test system: HSV-1
# Assay procedure: Plaque reduction assay, HSV-1 clinical isolates on Vero cells
# Format: cell-based
# Condition label: Human alphaherpesvirus 1, Vero, isolate HPG053, HSV-1 pol S911N (2732G>A); also TK R176W, pol A1169T; read-out: Drug susceptibility Penciclovir (PCV)
Reported metric: IC50

What the record says about `Nc1nc2c(ncn2CCC(CO)CO)c(=O)[nH]1` : IC50 is > 40 µM

----------
# Tested on: HSV-1
# Assay procedure: Plaque reduction assay, HSV-1 clinical isolates on Vero cells
# Type: cell-based
# Condition label: Human alphaherpesvirus 1, Vero, isolate HPG051, HSV-1 pol D83A (248A>C); also TK R176stop; read-out: Drug susceptibility Penciclovir (PCV)
Reported metric: IC50

According to the records, this molecule `Nc1nc2c(ncn2CCC(CO)CO)c(=O)[nH]1` displays IC50 of > 40 µM

----------
# Tested on: HSV-1
# Assay procedure: Plaque reduction assay, HSV-1 clinical isolates on Vero cells
# Format: cell-based
# Condition label: Human alphaherpesvirus 1, Vero, isolate HPG035, HSV-1 pol S239L (716C>T); also pol S724N; read-out: Drug susceptibility (IC50 value)
# From the text: Viral isolates were used to infect a sub-confluent monolayer of Vero cells at a concentration of 75 or 50 plaque forming units (PFU) per well for HSV-1 and HSV-2, respectively. […] CMC medium typically used to create a semisolid interface and prevents indiscrimate viral spreading. Other materials (e.g. agar) may also be used to create this interface. […]
Reported metric: pIC50
Here pIC50 is given on a logarithmic scale as minus log10 of the concentration in mol/L.

// below: answered compounds
O=C(O)P(=O)(O)O | 3.15
Nc1ccn(C[C@@H](CO)OCP(=O)(O)O)c(=O)n1 | 4.40
Nc1nc2c(ncn2CCC(CO)CO)c(=O)[nH]1 | 4.84

Here is the next item to consider.
Sample `Nc1nc2c(ncn2COCCO)c(=O)[nH]1` ; pIC50 observed: 5.27

----------
# Tested on: HSV-1
# Assay procedure: Plaque reduction assay, HSV-1 clinical isolates on Vero cells
# Format: cell-based
# Condition label: Human alphaherpesvirus 1, Vero, isolate HPG052, HSV-1 TK Q34* (100C>T); read-out: Drug susceptibility Penciclovir (PCV)
Reported metric: IC50

Notebook: Nc1nc2c(ncn2CCC(CO)CO)c(=O)[nH]1 [Penciclovir, penciclovir] , IC50 read as 10 to 40 µM

----------
In this section we review reported IC50 values for a set of compounds.
# System: HSV-1
# Assay procedure: Plaque reduction assay, HSV-1 clinical isolates on Vero cells
# Format: cell-based
# Condition label: Human alphaherpesvirus 1, Vero, isolate HPG019, HSV-1 pol K750T (2249A>C); also TK deletion (G) nt 430-436, pol A1169T; read-out: Drug susceptibility (IC50 value)
Supply the numeric figure in µM, leaving out any unit text.

Nc1ccn(C[C@@H](CO)OCP(=O)(O)O)c(=O)n1 | 20.4

Now examine the next entry.
According to the records, this compound `O=C(O)P(=O)(O)O` displays IC50 of 190

----------
# Lookup of reported IC50 keyed by entry
# Tested on: HSV-1
# Assay procedure: Plaque reduction assay, HSV-1 clinical isolates on Vero cells
# Format: cell-based
# Condition label: Human alphaherpesvirus 1, Vero, isolate HPG046, HSV-1 TK I166N (497T>A); read-out: Drug susceptibility (IC50 value)
Use µM as the unit, but write only the number.

Nc1ccn(C[C@@H](CO)OCP(=O)(O)O)c(=O)n1 [Cidofovir, cidofovir] | 2.1
Nc1nc2c(ncn2COCCO)c(=O)[nH]1 [Aciclovir, acyclovir] | 11.4

Consider the additional compound presented here.
Test item Nc1nc2c(ncn2CCC(CO)CO)c(=O)[nH]1 [Penciclovir, penciclovir] ; HSV-1; reported IC50 was 98.5

----------
# Test system: HSV-1
# Assay procedure: Plaque reduction assay, HSV-1 clinical isolates on Vero cells
# Type: cell-based
# Condition label: Human alphaherpesvirus 1, Vero, isolate HPG055, HSV-1 TK V204G (611T>G); also pol A1169AT; read-out: Drug susceptibility Cidofovir (CDV)
Reported metric: IC50

Please fill in: IC50 reported for Nc1ccn(C[C@@H](CO)OCP(=O)(O)O)c(=O)n1 [Cidofovir, cidofovir] = < 24 µM

----------
# Test system: HSV-2
# Assay procedure: Plaque reduction assay, HSV-2 clinical isolates on Vero cells
# Assay type: cell-based
# Condition label: Human alphaherpesvirus 2, Vero, isolate HPG038, HSV-2 TK R34C (100C>T); read-out: Drug susceptibility (IC50 value)
# Description: Viral isolates were used to infect a sub-confluent monolayer of Vero cells at a concentration of 75 or 50 plaque forming units (PFU) per well for HSV-1 and HSV-2, respectively. […] CMC medium typically used to create a semisolid interface and prevents indiscrimate viral spreading. Other materials (e.g. agar) may also be used to create this interface. […]
Reported metric: IC50 (µM)
State the answer as a number, implicitly in µM.

Recorded results for 2 molecules are shown here.
Nc1nc2c(ncn2COCCO)c(=O)[nH]1 | 2.04
Nc1nc2c(ncn2CCC(CO)CO)c(=O)[nH]1 | 9.64

Now for another entry.
Recorded IC50 (molecule `O=C(O)P(=O)(O)O` ): 73.7

----------
# System: HSV-1
# Assay procedure: Plaque reduction assay, HSV-1 clinical isolates on Vero cells
# Type: cell-based
# Condition label: Human alphaherpesvirus 1, Vero, isolate HPG010, HSV-1 TK Q125* (373C>T); read-out: Drug susceptibility (IC50 value)
Reported metric: IC50 (µM)
Express it in µM; write the number only.

Nc1nc2c(ncn2CCC(CO)CO)c(=O)[nH]1 | 87.1

What the record says about `Nc1nc2c(ncn2COCCO)c(=O)[nH]1` : IC50 is 9.21

The reported value for `O=C(O)P(=O)(O)O` in terms of IC50 is 46.7

----------
# Tested on: HSV-1
# Assay procedure: Plaque reduction assay, HSV-1 clinical isolates on Vero cells
# Format: cell-based
# Condition label: Human alphaherpesvirus 1, Vero, isolate HPG037, HSV-1 TK L69M (205>A); also TK Y239H; read-out: Drug susceptibility Cidofovir (CDV)
Reported metric: IC50

// assay HSV-1, entry Nc1ccn(C[C@@H](CO)OCP(=O)(O)O)c(=O)n1 [Cidofovir, cidofovir] , IC50 value = < 24 µM

----------
# Test system: HSV-1
# Assay procedure: Plaque reduction assay, HSV-1 clinical isolates on Vero cells
# Assay type: cell-based
# Condition label: Human alphaherpesvirus 1, Vero, isolate HPG018, HSV-1 pol P1199T (3595C>A); also TK deletion (C) nt 881-885, pol A1169T; read-out: Drug susceptibility Cidofovir (CDV)
Reported metric: IC50

Per the records, this compound ( `Nc1ccn(C[C@@H](CO)OCP(=O)(O)O)c(=O)n1` ) has IC50 equal to < 24 µM

----------
Parameter IC50: see the listing below.
# System: HSV-1
# Assay procedure: Plaque reduction assay, HSV-1 clinical isolates on Vero cells
# Assay type: cell-based
# Condition label: Human alphaherpesvirus 1, Vero, isolate HPG045, HSV-1 TK L49R (146T>G); read-out: Drug susceptibility (IC50 value)
// return numeric value only (unit: µM, not printed)

Nc1nc2c(ncn2COCCO)c(=O)[nH]1 [Aciclovir, acyclovir] | 31.5

The reported value for O=C(O)P(=O)(O)O [Foscarnet, foscarnet] in terms of IC50 is 75

----------
# System: HSV-1
# Assay procedure: Plaque reduction assay, HSV-1 clinical isolates on Vero cells
# Format: cell-based
# Condition label: Human alphaherpesvirus 1, Vero, isolate HPG032, HSV-1 TK 183* (437_438insA); read-out: Drug susceptibility Cidofovir (CDV)
Reported metric: IC50

// IC50 lookup, compound = Nc1ccn(C[C@@H](CO)OCP(=O)(O)O)c(=O)n1 [Cidofovir, cidofovir] , result: < 24 µM

----------
# Test system: HSV-1
# Assay procedure: Plaque reduction assay, HSV-1 clinical isolates on Vero cells
# Assay type: cell-based
# Condition label: Human alphaherpesvirus 1, Vero, isolate HPG013, HSV-1 TK M121I (363G>A); read-out: Drug susceptibility Penciclovir (PCV)
pIC50: −log10 of the molar value.
Reported metric: pIC50

Value (pIC50, HSV-1) for record `Nc1nc2c(ncn2CCC(CO)CO)c(=O)[nH]1` = < 4.40

Entry source: patent US12281363B2
